Source: patent US20240076343A1

molecular target: human PD-1 on Jurkat Effector cells of the PD-1/PD-L1 blockade bioassay (Promega, Cat #J1255) (human, UniProt Q15116 25-288); test: cell-based or functional assay
Sequence (Q15116 25-288): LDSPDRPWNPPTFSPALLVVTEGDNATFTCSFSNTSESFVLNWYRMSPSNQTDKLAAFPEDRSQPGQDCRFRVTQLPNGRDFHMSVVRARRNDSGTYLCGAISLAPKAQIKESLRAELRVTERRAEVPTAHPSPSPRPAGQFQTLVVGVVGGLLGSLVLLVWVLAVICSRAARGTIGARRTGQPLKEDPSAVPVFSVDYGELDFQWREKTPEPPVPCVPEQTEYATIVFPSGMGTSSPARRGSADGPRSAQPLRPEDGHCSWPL
Let's look at some binders and their measured luminescence (RLU), PD-1/PD-L1 blockade bioassay.
reportedProperty: luminescence (RLU), PD-1/PD-L1 blockade bioassay

binder	observedMeasurement
A2-hIgG4 (antibody, V domains shown) VH: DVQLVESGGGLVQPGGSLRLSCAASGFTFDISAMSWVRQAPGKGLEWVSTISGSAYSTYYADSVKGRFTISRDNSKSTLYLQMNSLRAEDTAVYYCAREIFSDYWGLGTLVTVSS VL: QSVLTQPPSASGTPGQRVTISCSGSTSNIGRESVYWYQQLPGTAPKLLIYSNVQRPSGAPNRFSGSKSGTSASLAISGLQSEDEADYYCGTWDDSLNGWVFGGGTKLTVLG	~3000 RLU
1D5-hIgG4 (antibody, V domains shown) VH: EVQLLESGGGLVQPGGSLRLSCVGSGFNFKDYCMTWVRQAPGKGLEWVSAIVYSGGSTYYADSVKGRFTISRDNSKNTLYLQMNSLRAEDTAVYYCAKYTRGSYFYDAMDVWGQGTTVTVSS VL: EIVLTQSPGTLSLSPGERATLSCRASQSIGRSFLAWYQQKPGQAPRLLIYDASTRATDIPDRFSGSGSGTEFTLTISSLQSEDFAVYYCQQYYDWPPLTFGGGTKVEIKR	~3000 RLU
